Target: Aldehyde dehydrogenase 1A1 (Homo sapiens) (UniProt P00352)
Sequence (P00352 whole entry, looked up): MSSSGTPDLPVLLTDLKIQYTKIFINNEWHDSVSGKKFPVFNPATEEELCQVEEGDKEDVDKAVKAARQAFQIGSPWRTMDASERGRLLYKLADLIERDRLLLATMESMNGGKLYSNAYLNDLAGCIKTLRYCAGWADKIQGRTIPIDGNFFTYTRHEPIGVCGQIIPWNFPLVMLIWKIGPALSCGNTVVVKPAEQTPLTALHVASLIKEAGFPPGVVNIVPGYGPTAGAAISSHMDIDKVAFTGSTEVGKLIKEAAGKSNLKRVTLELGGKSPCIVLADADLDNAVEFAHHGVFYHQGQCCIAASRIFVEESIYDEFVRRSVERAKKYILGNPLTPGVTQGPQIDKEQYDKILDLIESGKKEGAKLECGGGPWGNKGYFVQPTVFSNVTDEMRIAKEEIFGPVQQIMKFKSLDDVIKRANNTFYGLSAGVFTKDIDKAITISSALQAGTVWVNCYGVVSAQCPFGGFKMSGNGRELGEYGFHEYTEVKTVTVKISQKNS
Test: qHTS Assay for Inhibitors of Aldehyde Dehydrogenase 1 (ALDH1A1)
Conditions: Purified ALDH1A1, NADH fluorescence, propionaldehyde substrate; series mostly up to 75.3 µM
In all, about 220,000 compounds went through this assay and about 16,000 (7.3%) were called active. Roughly 25% stayed inconclusive and do not appear here. Calls come from the whole dose curve; as a rule, active = well fitted inhibition curve with a large enough effect (not every such curve was filed as active); inconclusive = small, poorly fitted or top-dose-only effect, or another doubt; inactive = no such curve, though single readings can be large or run the other way. The list comes from a sample in which actives are over-represented; it also holds close analogues and randomly drawn compounds.
Pick one and only one: active, inactive

Solved entries:
>  <compound>
CCn1c(CNS(=O)(=O)c2ccc(Cl)cc2)n[nH]c1=S

>  <qualitativeLabel>
inactive

$$$$
>  <compound>
Cc1ccnc2nc(C(=O)OCC(=O)N(CC(C)C)CC(C)C)nn12

>  <qualitativeLabel>
inactive

$$$$
>  <compound>
COc1ccc(-c2cc(C(=O)NCc3ccco3)no2)cc1OC

>  <qualitativeLabel>
inactive

$$$$
>  <compound>
C=CCC(CC=C)(C(N)=O)c1ccccc1

>  <qualitativeLabel>
inactive

$$$$

Enquiry: Any idea what this test logged for CSc1nnc2c(n1)OC(c1ccsc1)N(C(C)=O)c1ccccc1-2 (stereo not drawn) ?
Return: inactive

Enquiry: Another compound to look at: CC1CCCN(CC(O)COCc2ccccc2)C1 (stereo not drawn)
Return: inactive

Enquiry: Okay, and CS(=O)(=O)N1CCN(C(=O)Cc2ccccc2)CC1 ?
Return: active

Ref: PubChem BioAssay AID1030
